List of PET hydrolysis product formed values.
assay: PET hydrolysis product formed (TPA+MHET+BHET, UV-Vis) per mg enzyme (mmol/mg enzyme); higher = more PET depolymerisation activity; extreme values may be limits of the assay; details: PET substrate: cryPow; 60 °C; pH 7.5; 24 h
observable: PET hydrolysis product formed

sequence.entry	endpoint.result
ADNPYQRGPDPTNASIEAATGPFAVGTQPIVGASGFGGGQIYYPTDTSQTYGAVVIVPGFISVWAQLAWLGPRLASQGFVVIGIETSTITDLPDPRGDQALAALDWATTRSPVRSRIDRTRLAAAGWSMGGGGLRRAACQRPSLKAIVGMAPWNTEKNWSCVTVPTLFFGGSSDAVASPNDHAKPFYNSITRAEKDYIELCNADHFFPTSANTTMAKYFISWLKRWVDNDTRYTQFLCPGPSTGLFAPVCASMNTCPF [CaPETaseM9]	0.0789
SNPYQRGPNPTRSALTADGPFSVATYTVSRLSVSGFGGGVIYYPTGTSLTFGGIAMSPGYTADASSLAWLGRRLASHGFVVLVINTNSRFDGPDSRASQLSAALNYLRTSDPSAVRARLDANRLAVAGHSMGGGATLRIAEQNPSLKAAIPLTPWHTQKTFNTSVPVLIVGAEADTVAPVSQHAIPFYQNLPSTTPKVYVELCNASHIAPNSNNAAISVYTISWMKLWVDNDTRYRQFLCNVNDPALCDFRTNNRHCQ [LCC-ICCG DAQI]	0.173
